Procedure Details: yeast display, Sf9 membrane polyspecificity reagent, FACS + sequencing; frameworks hold sequencing errors
Measurement Type: polyreactivity (PSR sort gate)

INSERT INTO assay_data (chain, result) VALUES
  ('QVQLVESGGGLVQAGGSLRLSCAASGSIFLYNAMGWYRQAPGKERELVAAISASGGSTYYADSVKGRFTISRDNAKNTVYLQMNSLKPEDTAVYYCAAQYSDYDGFTWPLPPRYDYWGQGTQVTVSS', 'high polyreactivity'),
  ('QVQLQESGGGLVHAGGSLRLSCAASVTISFINMMGWYRQAPGRERELDASINFGANTNYADSVKGRFTISRDNAKNSVYLQMNSLKPEDTAVYYCAVYDFDAYTLYYWGQGTLVTVSS', 'high polyreactivity'),
  ('QVQLVDSGGGLVQAGGSLRLSCAASGFTFVYYVMGWYRQAPGKERQLVAAINAGGGSTYYADSVKGRFTISRDIAKYTVYLQMNSLKPEDTAVYYCNARVRVRLGRNWSSYYYWGQGTQVTVSS', 'high polyreactivity'),
  ('QVQLVESGGGLVQAGGSLRLSCAASGSIFALYAMGWYRQAPGKERELVAAISNTGGSTYYADSVKGRFTISRDNAKNTVYLQMNSLKPEDTAVYYCAARKARSSPRYYYWGQGTQVTVSS', 'high polyreactivity'),
  ('QVQLVESGGGLVQAGGSLRLSCAASGRTFYSYAMGWYRQAPGKERELVAAITSDGGTYYADSVKGRFTISRDNAKNTVYLQMNSLKPEDTAVYYCNAVGGWVTHWLLREGDYWGQGTQVTVSS', 'low polyreactivity'),
  ('QVQLVESGGGLVQAGGSLRLICAASGSIFNGYVMGWYRQAPGKERELVAAISSGGRTYYADSVKGRFTISRDNAKNTVYLQMNSLKPEDTAVYYCAADIWYFDYDYWGQGTQVTVSS', 'high polyreactivity'),
  ('QVQLVESGGGLVQAGGSLRLSCAASGFTFSHYAMGLSRQAPGKERELVAAITWSGGSTYYADSVKGRFTISRDNAKNTVYLQMKSLKPEDTAVYYCIALVIARNIEMDYWGQGTQVTVSS', 'high polyreactivity'),
  ('QVQLVESGGGLVQAGGILRLSCAASGFIFRLYAKGWYRQAPGKERGLVAAISSGTSTYYADSVKGRFTISRDNAKNTVYLQMNSLIPEDTAVYYCAARISRYPQDDSDYWGQGTQVTVSS', 'high polyreactivity'),
  ('QVQLVESGGGLVQAGGSLRLSCAASGSIFYVYAMGWYRQAPGKERELVAAITSSGTTNYADSVKGRFTISRDNAKNTVYLQMNSLKPEDTAVYYCAADAYSGAYFTYLGEIYDYWGQGTQVTVSS', 'low polyreactivity'),
  ('QVQLVESGGGLVQAGGSLRLICAASGFTFRGYAMGWYRQAPGKERELVAAIRRGVITNYADSVNGRFTISRDNAKNTVYLQMNSLKPEDTAVYYCAAGNITPYRYYHGYYQSIYDYWGQGTIVTVSS', 'low polyreactivity'),
  ('QVQLVESGGGLVQAGGSLRLSCAASGRTFVGYAMGWYRQAPGKERELVAAISWSGGRTYYADSVKGRFTISRDNAKNTVYLQMNSLKPEDTAVYYCAALLYRTPYYPYYGYDYWGQGTQVTVSS', 'high polyreactivity');
